So I've got a bunch of molecules here, and I need their growth values.
Tested on: U251 CNS
method summary: NCI-60 one-dose screen, 48 h (100 = growth as untreated, 0 = no growth, -100 = all killed)
condition details: 10 µM unless noted
Compounds without any hit were thinned out: in the full panel of roughly 83,000, 20% have a hit. Active and inactive are the calls of the source. Rule for the calls: active = growth percent below 10; inactive = the rest.

Consider the molecule C/C(=N\Nc1ccc(Cl)cn1)c1ccccn1 and give its recorded growth.
7.65% (active)

Consider the molecule O=C(NCCO)C(F)(F)F and give its recorded growth.
97.1% (inactive)

Consider the molecule CC(=O)Nc1nc(C)c(C(=O)N/N=C/N2CCCCC2)s1 and give its recorded growth.
105% (inactive)

Consider the molecule C/C(CCC(=O)O)=N/Nc1ccc([N+](=O)[O-])cc1 and give its recorded growth.
75.7% (inactive)

Consider the molecule CCCCCCCCCCC1OC(C)CC(C)O1 (configuration not stated) and give its recorded growth.
105% (inactive)

Consider the molecule Oc1ccc(CN(Cc2ccc(C(F)(F)F)cc2)Cc2ccc(O)c3ncccc23)c2cccnc12 and give its recorded growth.
1.77% (active)

Consider the molecule COC1=C(OC)C(=O)c2ccccc2C1=O and give its recorded growth.
89.9% (inactive)

Consider the molecule COC(=O)c1cc(Nc2ccc(O)c3c2C(=O)c2c([N+](=O)[O-])ccc(O)c2C3=O)cc(C(=O)OC)c1 and give its recorded growth.
74.8% (inactive)

Consider the molecule O=S(=O)(O)CCI and give its recorded growth.
110% (inactive)

Consider the molecule Cn1c2ccccc2c2ccccc21 and give its recorded growth.
96.5% (inactive)

Consider the molecule Nc1cc2c(cc1Br)[nH]c(=O)c1ccccc12 and give its recorded growth.
40.3% (inactive)

Consider the molecule O=C(Nc1cccc(Cn2c(=O)[nH]c3ccc(Oc4ncccn4)cc3c2=O)c1)c1cccc(F)c1 and give its recorded growth.
82.3% (inactive)

====

System: MALME-3M melanoma
method summary: NCI-60 one-dose screen, 48 h (100 = growth as untreated, 0 = no growth, -100 = all killed)
condition details: 10 µM unless noted
The panel holds about 83,000 compounds, 20% with a hit somewhere; the sample as a whole holds those more often.
readout: growth (%)
Please give a number only; it is taken to be in %.

Consider the compound CCOC(=O)NC1=NCC(C)(C)S1 and give its recorded growth.
103

Consider the compound COc1cc(-c2c3c(cn2CCN2CCCCC2)-c2oncc2CC3)cc(OC)c1OC and give its recorded growth.
110

Consider the compound Ic1ccc(SSc2ccc(I)cc2)cc1 and give its recorded growth.
114

Consider the compound COC(=O)c1ccc2[nH]c(O)c(C(=Nc3ccc(N(C)C(=O)CN4CCN(C)CC4)cc3)c3ccc(N)cc3)c2c1 and give its recorded growth.
83.5

Consider the compound CC(C)(CNC1CCCCC1)OC(=O)c1ccccc1 and give its recorded growth.
99.2

Consider the compound O=C(CBr)OCc1ccc([N+](=O)[O-])o1 and give its recorded growth.
107

Consider the compound NC(N)=Nc1ccc(/C=C2\C=Cc3ccccc32)cc1 and give its recorded growth.
88.8

Consider the compound Cn1cnc2nc[nH]c2c1=S and give its recorded growth.
98.8

Consider the compound COC(=O)c1cc(Nc2ccc(O)c3c2C(=O)c2c([N+](=O)[O-])ccc(O)c2C3=O)cc(C(=O)OC)c1 and give its recorded growth.
-51.1

Consider the compound CN1CCN(Cc2ccc(NC(=O)c3ccc(C#Cc4c(N)ncc5ccc(F)cc45)cc3)cc2C(F)(F)F)CC1 and give its recorded growth.
-88.1

Consider the compound CC1(C)C(O)NC(Cl)=C(C#N)C1(C#N)C#N (stereo unspecified) and give its recorded growth.
136

Taken from PubChem BioAssay (NCI).
